src = ChEMBL document CHEMBL4689842

Assignment: determine reported Population Apoptotic (%) for the given molecules.
- Tested on: Fibroblast
- experiment notes: Multiplex assay against human fibroblast
- Assay type: toxicity, cell-based
- condition info: 24 h, 1 µM, compound concentration 1 uM, replicate 2
Numbers only, in %.

In the examples that follow, each entry is paired with its recorded Population Apoptotic (%).
• Cc1c[nH]c2nccc(Oc3c(F)cc(Nc4cc(Cl)nc(N)n4)cc3F)c12 = 46
• Cl.O=C(O)c1cc(-c2ccc(C3CCNCC3)cc2)c2ccc(-c3ccc(C(F)(F)F)cc3)cc2c1 = 20

Please give Population Apoptotic (%), item by item, for the list that follows.
1. CN1CCN(Cc2ccc(Nc3ncc(Cl)c(Nc4ccccc4S(=O)(=O)N(C)C)n3)cc2)CC1
2. CC(C)c1noc(N2CCC(COc3ccc(-c4ccc(S(C)(=O)=O)cc4)nc3)CC2)n1

[0, 0]
